Below, each of the molecules is paired with its reported growth value.
- Test system: HCC-2998 colon
- assay-overview: NCI-60 one-dose screen, 48 h (100 = growth as untreated, 0 = no growth, -100 = all killed)
- test-settings: 10 µM unless noted
- Experimental: Growth inhibition of the HCC-2998 human tumor cell line is measured as a screen for anti-cancer activity. Cells are grown in 96 well plates and exposed to the test compound for 48 hours. Compounds are tested at a single concentration, which is 10^-5 M for most compounds. The reported endpoint is percent growth (GI% or GIPRCNT), where numbers from 0 - 100% represent growth inhibition, and numbers from -100% - 0 represent cell death. For example, a value of 40 represents 60% growth inhibition. […]
About 83,000 compounds went through this panel and 20% of them were active in at least one assay; those are over-represented in the sample as a whole.
measured-parameter: growth (%)

INSERT INTO results (molecule, readout_units, readout_number) VALUES
  ('COc1ccccc1-c1c(-c2ccc(Cl)cc2)c2cc3c(cc2[nH]c1=O)OCCO3', '%', 83.7),
  ('CC(=O)O[C@H]1CC[C@@]2(C)[C@@H](CC[C@@H]3[C@@H]2CC[C@@]2(C)[C@H]3CC[C@]2(O)C(C)=O)C1', '%', 96.5),
  ('Clc1ccc(C2CC(c3cccc(Nc4ccncc4)c3)=NN2c2ccccc2)cc1 (configuration not stated)', '%', -31.5),
  ('S=c1[nH]cccc1-c1nnc2n1Nc1nc3ccc(Cl)cc3cc1CS2', '%', 106),
  ('CN(C)C(C(N)=O)c1ccc(Cl)cc1 (configuration not stated)', '%', 102),
  ('COc1cc(OC)cc(C2C3=C(COC3=O)Nc3cc(OC)ccc32)c1 (configuration not stated)', '%', 1.15),
  ('ClCC1(Cn2cnc3c(Cl)nc(Cl)nc32)COC1', '%', -6.15),
  ('CCC(C)N(CCNc1cc(OC)cc2cccnc12)CCC(C)C (configuration not stated)', '%', 79.1),
  ('CS(=O)(=O)OCCN(CCOS(C)(=O)=O)c1ccc(/C=N/Nc2ccc([N+](=O)[O-])cc2[N+](=O)[O-])cc1', '%', 80.2),
  ('CS(=O)(=O)c1ccc(-c2cc3c(oc2=O)-c2ccccc2OC3O)cc1 (configuration not stated)', '%', 97.5),
  ('CC(=O)NCCCS(=O)(=O)O', '%', 102),
  ('O=C(O)CCCCCCCCCCCCCCC(=O)O', '%', 101),
  ('O=C(N/N=C/c1ccc(F)cc1)c1ccccc1Nc1cccc(C(F)(F)F)c1', '%', 107),
  ('O=C(OC(OC(=O)c1cc(Cl)cc(Cl)c1)c1cccc2ccccc12)c1ccccc1 (configuration not stated)', '%', 83.4),
  ('c1ccc(C2CC(c3cccc(Nc4ccncc4)c3)=NN2c2ccccc2)cc1 (configuration not stated)', '%', 3.07),
  ('N#CSCC1CC(O)(c2ccccc2)C(c2ccccc2)C(c2ccc(F)cc2)O1 (configuration not stated)', '%', 74.8),
  ('COc1cccc(CCC(=O)c2cc3c(N)c(C(=O)Nc4cccc(Cl)c4C)sc3nc2C)c1', '%', 6.58),
  ('O=C(CSc1nc2sc3c(c2c(=O)n1Cc1ccccc1)CCCC3)N1CCN(c2ccccc2)CC1', '%', 103),
  ('COc1c(Cl)cc(Cl)c2ccc(C=C3C(=O)NC(=S)NC3=O)nc12', '%', 99.2),
  ('Clc1ccc2c(c1)c(-c1ccccc1)nc1nncn12', '%', 113),
  ('Cc1ccc(S(=O)(=O)Nc2ccc(Cl)cc2)cc1', '%', 104),
  ('CCCc1cc2c(cc1Br)OCO2', '%', 103);
